# Tested on: human CETP mRNA
# Measurement notes: Antisense inhibition of human CETP mRNA in primary hepatocytes from huCETP transgenic mice (Example 4)
# Type: cell-based, mouse
# Condition notes: 100 nM, cytofectin, ~24 hours
Strand notation (5' to 3'): a small letter for the sugar, then the base; units joined by * are phosphorothioate-linked, units joined directly phosphodiester-linked; [ ] holds rarer units or linkages, { } end groups; capitals alone tell only the bases. e = 2'-O-(2-methoxyethyl) (MOE); [5mC] = 5-methylcytosine; d = 2'-deoxy (DNA)
Listed next: entries and their corresponding Percent inhibition of human CETP mRNA.
Express your answer in %, writing the number without its unit.

Past entries and their recorded results:
ISIS 349500: 5-10-5 MOE gapmer ACAGTCTTTGGTGTAATCTG (eA*e[5mC]*eA*eG*eT*d[5mC]*dT*dT*dT*dG*dG*dT*dG*dT*dA*eA*eT*e[5mC]*eT*eG) ... 41
ISIS 349449: 5-10-5 MOE gapmer CGAGCCGTTCAGCCTGGAGC (e[5mC]*eG*eA*eG*e[5mC]*d[5mC]*dG*dT*dT*d[5mC]*dA*dG*d[5mC]*d[5mC]*dT*eG*eG*eA*eG*e[5mC]) ... 68
ISIS 349482: 5-10-5 MOE gapmer TGAAATGACCCTTGTGATGG (eT*eG*eA*eA*eA*dT*dG*dA*d[5mC]*d[5mC]*d[5mC]*dT*dT*dG*dT*eG*eA*eT*eG*eG) ... 11
ISIS 349494: 5-10-5 MOE gapmer AGAATTGACCACGACTCCCT (eA*eG*eA*eA*eT*dT*dG*dA*d[5mC]*d[5mC]*dA*d[5mC]*dG*dA*d[5mC]*eT*e[5mC]*e[5mC]*e[5mC]*eT) ... 85

Inquiry: API: value(readout= Percent inhibition of human CETP mRNA, system= human CETP mRNA, query= ISIS 349465: 5-10-5 MOE gapmer GAGACATCAATGGACTTGGC (eG*eA*eG*eA*e[5mC]*dA*dT*d[5mC]*dA*dA*dT*dG*dG*dA*d[5mC]*eT*eT*eG*eG*e[5mC]) )
Reply text: 50

---

# Tested on: human CETP mRNA
# Measurement notes: Liver CETP mRNA in huCETP transgenic mice, normal chow (Example 5)
# Type: in vivo
# Condition notes: 50 mg/kg i.p. twice per week for 6 weeks, relative to PBS control
e = 2'-O-(2-methoxyethyl) (MOE); d = 2'-deoxy (DNA)
Measurement label: Percent inhibition of liver CETP mRNA expression, Primer probe set hCETP2_LTS00182 (%)
Express your answer in %, writing the number without its unit.

Past entries and their recorded results:
ISIS 349511: 5-10-5 MOE gapmer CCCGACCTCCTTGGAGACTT (sugars from the 5' end e5 d10 e5, backbone and methylation of C not given here) ... 86
ISIS 349515: 5-10-5 MOE gapmer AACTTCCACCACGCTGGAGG (sugars from the 5' end e5 d10 e5, backbone and methylation of C not given here) ... 52
ISIS 349512: 5-10-5 MOE gapmer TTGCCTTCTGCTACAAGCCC (sugars from the 5' end e5 d10 e5, backbone and methylation of C not given here) ... 94

Please examine the following record next.
Inquiry: API: value(readout= Percent inhibition of liver CETP mRNA expression, Primer probe set hCETP2_LTS00182, system= human CETP mRNA, query= ISIS 349517: 5-10-5 MOE gapmer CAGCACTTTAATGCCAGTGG (sugars from the 5' end e5 d10 e5, backbone and methylation of C not given here) )
Reply text: 95
